Just for reference, ChEMBL document CHEMBL4033665 is where these values come from.

- EXPERIMENTAL_SYSTEM: UniProt:Q92769
- Sequence (Q92769 whole entry): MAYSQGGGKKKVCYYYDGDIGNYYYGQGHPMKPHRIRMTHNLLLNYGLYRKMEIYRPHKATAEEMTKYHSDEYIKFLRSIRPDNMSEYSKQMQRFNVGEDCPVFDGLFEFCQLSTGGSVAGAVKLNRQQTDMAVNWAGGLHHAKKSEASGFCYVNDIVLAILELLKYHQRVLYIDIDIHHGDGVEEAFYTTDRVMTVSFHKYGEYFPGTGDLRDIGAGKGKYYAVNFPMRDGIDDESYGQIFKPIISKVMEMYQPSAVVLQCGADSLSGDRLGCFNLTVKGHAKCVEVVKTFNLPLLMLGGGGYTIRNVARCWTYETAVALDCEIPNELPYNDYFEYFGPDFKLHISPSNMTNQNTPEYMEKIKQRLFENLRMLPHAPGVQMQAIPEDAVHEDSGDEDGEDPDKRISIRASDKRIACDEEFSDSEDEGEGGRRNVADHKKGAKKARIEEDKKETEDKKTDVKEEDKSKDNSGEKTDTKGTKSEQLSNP
- ASSAY_COMMENT: Inhibition of HDAC2 (unknown origin) by fluorescence assay
pIC50: −log10 of the molar value.
MEASURED_QUANTITY: pIC50

INSERT INTO assay_data (substance_smiles, result) VALUES
  ('O=C(NO)c1cccc(-c2csc(CSc3ccccc3)n2)c1', '< 4.00');

---

- EXPERIMENTAL_SYSTEM: UniProtKB Q969S8
- Sequence (Q969S8 whole entry): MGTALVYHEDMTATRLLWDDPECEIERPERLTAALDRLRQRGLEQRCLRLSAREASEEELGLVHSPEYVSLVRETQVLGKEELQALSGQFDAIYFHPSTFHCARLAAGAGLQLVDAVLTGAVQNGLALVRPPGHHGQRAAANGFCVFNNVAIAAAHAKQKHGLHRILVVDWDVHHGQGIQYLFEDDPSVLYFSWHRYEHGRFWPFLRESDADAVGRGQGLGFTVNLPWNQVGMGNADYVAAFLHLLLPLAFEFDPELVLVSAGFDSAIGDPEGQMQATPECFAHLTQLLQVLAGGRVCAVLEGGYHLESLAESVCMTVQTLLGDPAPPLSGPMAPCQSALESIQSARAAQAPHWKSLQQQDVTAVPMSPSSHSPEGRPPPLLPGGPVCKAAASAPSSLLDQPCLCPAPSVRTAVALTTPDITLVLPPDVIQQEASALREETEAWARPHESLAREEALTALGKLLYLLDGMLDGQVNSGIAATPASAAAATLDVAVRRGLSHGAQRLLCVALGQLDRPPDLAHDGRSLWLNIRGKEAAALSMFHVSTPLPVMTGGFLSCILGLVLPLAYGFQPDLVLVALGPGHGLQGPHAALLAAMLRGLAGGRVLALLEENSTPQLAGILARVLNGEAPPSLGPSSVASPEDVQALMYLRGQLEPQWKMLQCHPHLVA
- ASSAY_COMMENT: Inhibition of human HDAC10 using RHKKAc as substrate by fluorescence assay
MEASURED_QUANTITY: IC50

INSERT INTO results (molecule, measured_quantity, result) VALUES
  ('CN1C(=O)C2CN(Cc3c2c2ccccc2n3Cc2ccc(C(=O)NO)cc2)C1=O (stereo unspecified)', 'IC50', '10.5 µM');
